measuredOn: Voltage-gated inwardly rectifying potassium channel KCNH2 (Homo sapiens, UniProt Q12809)
Sequence (Q12809 whole entry): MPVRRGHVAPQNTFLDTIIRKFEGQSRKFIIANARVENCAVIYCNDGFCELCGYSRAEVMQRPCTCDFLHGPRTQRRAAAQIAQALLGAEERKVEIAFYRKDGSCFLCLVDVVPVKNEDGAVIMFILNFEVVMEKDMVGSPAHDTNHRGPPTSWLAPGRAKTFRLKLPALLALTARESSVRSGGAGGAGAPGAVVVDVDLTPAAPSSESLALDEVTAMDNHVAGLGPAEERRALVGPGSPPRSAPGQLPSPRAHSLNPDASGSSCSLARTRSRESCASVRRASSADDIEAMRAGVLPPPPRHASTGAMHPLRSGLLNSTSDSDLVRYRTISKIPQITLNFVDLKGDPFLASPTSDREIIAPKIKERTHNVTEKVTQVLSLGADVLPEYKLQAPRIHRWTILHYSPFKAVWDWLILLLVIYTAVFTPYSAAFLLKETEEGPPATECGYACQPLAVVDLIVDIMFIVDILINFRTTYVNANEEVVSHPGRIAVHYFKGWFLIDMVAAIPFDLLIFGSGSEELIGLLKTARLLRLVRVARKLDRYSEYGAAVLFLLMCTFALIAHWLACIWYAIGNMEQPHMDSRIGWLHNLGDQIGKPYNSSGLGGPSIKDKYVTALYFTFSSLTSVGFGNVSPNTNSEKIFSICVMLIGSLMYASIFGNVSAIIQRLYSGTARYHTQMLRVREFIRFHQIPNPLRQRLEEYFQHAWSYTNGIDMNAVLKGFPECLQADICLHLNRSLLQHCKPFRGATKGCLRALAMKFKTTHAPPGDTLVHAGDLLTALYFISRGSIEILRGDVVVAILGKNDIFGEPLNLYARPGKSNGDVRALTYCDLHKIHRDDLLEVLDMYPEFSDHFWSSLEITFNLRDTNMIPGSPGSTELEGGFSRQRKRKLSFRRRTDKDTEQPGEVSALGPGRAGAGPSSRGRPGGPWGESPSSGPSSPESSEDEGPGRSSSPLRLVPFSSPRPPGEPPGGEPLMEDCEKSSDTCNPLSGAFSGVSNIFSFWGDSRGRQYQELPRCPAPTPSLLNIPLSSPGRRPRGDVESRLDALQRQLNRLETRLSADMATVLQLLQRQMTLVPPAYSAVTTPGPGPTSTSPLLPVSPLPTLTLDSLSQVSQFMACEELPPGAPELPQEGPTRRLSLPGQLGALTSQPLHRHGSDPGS
protocolNotes: Inhibition of human ERG expressed in CHO cells incubated for 7 to 10 mins by automated whole-cell patch clamp recordings
outcomeMeasure: IC50 (µM)
The reply should be a number in µM, with the unit left off.

Worked examples, 3 compounds total:
compound: CC(=O)N1CCC[C@H]2[C@@H]3CCc4cc(OCCCN5CCC[C@H]5C)ccc4[C@H]3CC[C@@]21C
observedValue: 10

compound: C[C@@H]1CCCN1CCCOc1ccc2c(c1)CC[C@H]1[C@@H]3[C@@H]4C[C@@H]4C(=O)N(C)[C@@]3(C)CC[C@H]21
observedValue: 7.7

compound: C[C@@H]1CC(=O)N[C@@]2(C)CC[C@@H]3c4ccc(OCCCN5CCC[C@H]5C)cc4CC[C@H]3[C@H]12
observedValue: 11

Let's switch to this compound now.
Field request: IC50 | item: C[C@@H]1CCCN1CCCOc1ccc2c(c1)CC[C@H]1[C@@H]3[C@H](C#N)CC(=O)N[C@@]3(C)CC[C@H]21
24

====

This section presents compounds with their documented IC50 values.
measuredOn: Voltage-gated inwardly rectifying potassium channel KCNH2 (Homo sapiens)
protocolNotes: Inhibition of human ERG expressed in CHO cells incubated for 7 to 10 mins by automated whole-cell patch clamp recordings

Worked examples, 3 compounds total:
compound: C[C@@H]1CCCN1CCCOc1ccc2c(c1)CC[C@@H]1[C@@H]2CC[C@]2(C)NC(=O)CC[C@H]12
outcomeMeasure: IC50
observedValue: 22 µM

compound: C[C@]12CC[C@@H]3c4ccc(OCCCN5CCCC5)cc4CC[C@H]3[C@@H]1CCCN2C=O
outcomeMeasure: IC50
observedValue: 6 µM

compound: C[C@@H]1CC(=O)N(C)[C@@]2(C)CC[C@@H]3c4ccc(OCCCN5CCC[C@H]5C)cc4CC[C@H]3[C@H]12
outcomeMeasure: IC50
observedValue: 8.8 µM

Test system Voltage-gated inwardly rectifying potassium channel KCNH2 (Homo sapiens); read-out IC50; what value for C[C@@H]1CCCN1CCCOc1ccc2c(c1)CC[C@@H]1[C@@H]2CC[C@]2(C)NC(=O)CC[C@@H]12 ?
3.7 µM

Entry C[C@@H]1CCCN1CCCOc1ccc2c(c1)CC[C@@H]1[C@@H]2CC[C@@]2(C)[C@@H]1CCC(=O)N2C please
9.6 µM

Entry C[C@@H]1CCCN1CCCOc1ccc2c(c1)CC[C@@H]1[C@@H]2CC[C@@]2(C)NC(=O)CC[C@@H]12 please
> 30 µM

Entry C[C@@H]1C[C@H]2[C@@H]3CCc4cc(OCCCN5CCC[C@H]5C)ccc4[C@H]3CC[C@]2(C)NC1=O please
14.5 µM

Entry C[C@@H]1CCCN1CCCOc1ccc2c(c1)CC[C@H]1[C@@H]3[C@H](C#N)CC(=O)N(C)[C@@]3(C)CC[C@H]21 please
10.4 µM

Entry C[C@@H]1CCCN1CCCOc1ccc2c(c1)CC[C@H]1C3=CCC(=O)N(C)[C@@]3(C)CC[C@H]21 please
8.6 µM

Entry C[C@@H]1CCCN1CCCOc1ccc2c(c1)CC[C@@H]1[C@@H]2CC[C@@]2(C)[C@H]1CCC(=O)N2C please
9.9 µM

Entry C[C@@H]1CCCN1CCCOc1ccc2c(c1)CC[C@H]1C3=CCC(=O)N[C@@]3(C)CC[C@H]21 please
18.7 µM

====

measuredOn: Histamine H3 receptor (Rattus norvegicus)
Sequence (Q9QYN8 whole entry): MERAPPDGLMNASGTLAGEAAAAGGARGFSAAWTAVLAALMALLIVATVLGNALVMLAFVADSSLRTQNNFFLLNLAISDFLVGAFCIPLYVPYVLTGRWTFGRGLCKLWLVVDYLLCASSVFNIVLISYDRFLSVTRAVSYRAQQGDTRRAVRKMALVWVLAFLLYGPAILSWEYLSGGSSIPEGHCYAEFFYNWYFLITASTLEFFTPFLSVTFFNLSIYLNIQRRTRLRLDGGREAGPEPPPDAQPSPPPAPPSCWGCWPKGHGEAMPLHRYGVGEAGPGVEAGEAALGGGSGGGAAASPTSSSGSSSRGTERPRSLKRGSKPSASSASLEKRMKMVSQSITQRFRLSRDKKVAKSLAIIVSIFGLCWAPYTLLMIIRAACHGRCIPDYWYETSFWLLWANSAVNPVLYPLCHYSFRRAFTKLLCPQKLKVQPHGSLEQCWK
pKi: −log10 of the molar value.
Quick rule for you: pKi at 8 or higher means criterion met, lower means criterion not met.

Previously resolved entries follow.
compound: C[C@@H]1C[C@@H]2[C@@H]3CCc4cc(OCCCN5CCC[C@H]5C)ccc4[C@H]3CC[C@]2(C)N(C)C1=O
answerLabel: criterion met
//
compound: C[C@]12CC[C@@H]3c4ccc(OCCCN5CCCC5)cc4CC[C@H]3[C@@H]1CCCN2C=O
answerLabel: criterion not met

Please find the next compound below.
Reported pKi reaches at least 8 for C[C@@H]1CCCN1CCCOc1ccc2c(c1)CC[C@H]1C3=CCC(=O)N(C)[C@@]3(C)CC[C@H]21 ?
criterion met

====

This section presents molecules with their documented Activity values.
Organism: Rattus norvegicus
protocolNotes: Displacement of [3H]quinuclidinyl benzilate from Wistar rat cerebral cortex membrane muscarinic AChR at 1 uM by liquid scintillation counter relative to control
Format: cell membranes
The reply should be a number in %, with the unit left off.

compound: C[C@]12CC[C@@H]3c4ccc(OCCCN5CCCC5)cc4CC[C@H]3[C@@H]1CCCN2
outcomeMeasure: Activity
valueUnit: %
observedValue: 36

compound: CN1CCC[C@H]2[C@@H]3CC[C@H]4C[C@@H](OC(=O)CCN5CCCC5)CC[C@]4(C)[C@H]3CC[C@@]21C
outcomeMeasure: Activity
valueUnit: %
observedValue: 44

compound: CN1CCC[C@H]2[C@@H]3CCc4cc(OCCCN5CCCC5)ccc4[C@H]3CC[C@@]21C
outcomeMeasure: Activity
valueUnit: %
observedValue: 69

Let's switch to this molecule now.
Field request: Activity | item: C[C@]12CC[C@@H]3c4ccc(OCCCN5CCCC5)cc4CC[C@H]3[C@@H]1CCCN2C=O
13

====

This section presents compounds with their documented pKi values.
measuredOn: Histamine H3 receptor (Homo sapiens)
In simple prose, pKi is minus the logarithm base ten of a concentration in moles per litre.

Worked examples, 5 compounds total:
compound: C[C@@H]1CCCN1CCCOc1ccc2c(c1)CC[C@@H]1[C@@H]2CC[C@@]2(C)[C@H]1CCCN2C(=O)C(C)(C)C
observedValue: 8.11
//
compound: C[C@]12CC[C@@H]3c4ccc(OCCCN5CCCC5)cc4CC[C@H]3[C@@H]1CCCN2CCO
observedValue: 8.47
//
compound: C[C@@H]1CCCN1CCCOc1ccc2c(c1)CC[C@H]1C3=CCC(=O)N(C)[C@@]3(C)CC[C@H]21
observedValue: 8.96
//
compound: C[C@]12CC[C@@H]3c4ccc(OCCCN5CCCC5)cc4CC[C@H]3[C@@H]1CCCN2
observedValue: 8.82
//
compound: CC(=O)N1CCC[C@H]2[C@@H]3CCc4cc(OCCCN5CCC[C@H]5C)ccc4[C@H]3CC[C@@]21C
observedValue: 8.16

Let's switch to this compound now.
Field request: pKi | item: CCC(=O)N1CCC[C@H]2[C@@H]3CCc4cc(OCCCN5CCC[C@H]5C)ccc4[C@H]3CC[C@@]21C
8.10

====

protocolNotes: Bioavailability in Wistar rat at 10 mg/kg, po or 3 mg/kg, iv measured after 24 hrs by HPLC-MS/MS analysis
Format: ADME, organism-based
reportedConditions: in vivo
This section presents compounds with their documented bioavailability values.
The reply should be a number in %, with the unit left off.

Field request: bioavailability | item: C[C@@H]1CCCN1CCCOc1ccc2c(c1)CC[C@H]1C3=CCC(=O)N[C@@]3(C)CC[C@H]21
63.8

Entry C[C@@H]1CCCN1CCCOc1ccc2c(c1)CC[C@@H]1[C@@H]2CC[C@@]2(C)[C@H]1CCC(=O)N2C please
63.7

====

measuredOn: Histamine H3 receptor (Homo sapiens, UniProt Q9Y5N1)
Sequence (Q9Y5N1 whole entry): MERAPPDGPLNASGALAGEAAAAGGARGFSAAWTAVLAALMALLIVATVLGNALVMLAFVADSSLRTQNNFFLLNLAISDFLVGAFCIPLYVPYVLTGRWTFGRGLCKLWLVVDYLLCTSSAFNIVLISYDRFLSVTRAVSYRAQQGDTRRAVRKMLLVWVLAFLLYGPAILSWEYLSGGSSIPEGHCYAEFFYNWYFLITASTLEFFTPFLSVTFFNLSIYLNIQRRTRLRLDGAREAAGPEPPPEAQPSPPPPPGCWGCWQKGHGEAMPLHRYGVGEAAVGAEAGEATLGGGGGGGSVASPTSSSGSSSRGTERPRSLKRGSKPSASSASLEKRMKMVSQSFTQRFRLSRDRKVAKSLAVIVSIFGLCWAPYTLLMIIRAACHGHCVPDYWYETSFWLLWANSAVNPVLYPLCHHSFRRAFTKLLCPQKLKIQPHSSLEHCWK
outcomeMeasure: pKi
In simple prose, pKi is minus the logarithm base ten of a concentration in moles per litre.

Worked examples, 2 compounds total:
compound: C[C@@H]1CCCN1CCCOc1ccc2c(c1)CC[C@H]1[C@@H]3[C@@H]4C[C@@H]4C(=O)N(C)[C@@]3(C)CC[C@H]21
pKi: 9.00

compound: C[C@@H]1CC(=O)N(C)[C@@]2(C)CC[C@@H]3c4ccc(OCCCN5CCC[C@H]5C)cc4CC[C@H]3[C@H]12
pKi: 8.62

Field request: pKi | item: C[C@@H]1CCCN1CCCOc1ccc2c(c1)CC[C@H]1[C@@H]3[C@@H]4C[C@@H]4C(=O)N[C@@]3(C)CC[C@H]21
8.31

Entry C[C@@H]1CCCN1CCCOc1ccc2c(c1)CC[C@@H]1[C@@H]2CC[C@@]2(C)[C@H]1CCCN2C(=O)c1ccccc1 please
7.94

Entry CN1CCC[C@H]2[C@@H]3CCc4cc(OCCCN5CCCC5)ccc4[C@H]3CC[C@@]21C please
9.05

Entry C[C@@H]1CCCN1CCCOc1ccc2c(c1)CC[C@H]1[C@@H]3[C@H](C#N)CC(=O)N[C@@]3(C)CC[C@H]21 please
8.07

Entry CN1CCC[C@H]2[C@@H]3CC[C@H]4C[C@@H](OC(=O)CCN5CCCC5)CC[C@]4(C)[C@H]3CC[C@@]21C please
7.97

Entry C[C@@H]1C[C@@H]2[C@@H]3CCc4cc(OCCCN5CCC[C@H]5C)ccc4[C@H]3CC[C@]2(C)N(C)C1=O please
8.82

Entry CC(=O)N[C@]12CCC(=O)N[C@@]1(C)CC[C@@H]1c3ccc(OCCCN4CCC[C@H]4C)cc3CC[C@H]12 please
7.82

Entry C[C@@H]1CCCN1CCCOc1ccc2c(c1)CC[C@H]1[C@H]3[C@@H]4C[C@@H]4C(=O)N[C@@]3(C)CC[C@H]21 please
8.62

Entry C[C@@H]1CCCN1CCCOc1ccc2c(c1)CC[C@H]1[C@@H]3[C@H](C#N)CC(=O)N(C)[C@@]3(C)CC[C@H]21 please
8.70

Entry C[C@]12CC[C@@H]3c4ccc(OCCCN5CCCC5)cc4CC[C@H]3[C@@H]1CCCN2C=O please
8.74

Entry C[C@@H]1CC(=O)N[C@@]2(C)CC[C@@H]3c4ccc(OCCCN5CCC[C@H]5C)cc4CC[C@H]3[C@H]12 please
8.66

Entry C[C@@H]1C[C@H]2[C@@H]3CCc4cc(OCCCN5CCC[C@H]5C)ccc4[C@H]3CC[C@]2(C)NC1=O please
8.39
